assay: label from the status in PepcDB records
reported-property: protein production

{"query-sequence": "MTKNDNTIFKDIYQLWFTQYKQTVKESTWVTTQRLFRLHILPIFSDYRIAKISIKDCQKAINQWFNAGLAKYHTLMNYVAKVLDYAINIDLISENPAKRVIVPVNKNDRSLEHHHHHH", "reported-property": "protein production", "endpoint-result": "not failed"}
{"query-sequence": "MIHFSINKNLFLQALNTTKRAISSKNAIPILSTVKIDVTNEGITLIGSNGQISIENFISQKNEDAGLLITSLGSILLEASFFINVVSSLPDVTLDFKEIEQNQIVLTSGKSEITLKGKDSEQYPRIQEISASTPLILETKLLKKIINETAFAASTQESRPILTGVHFVLSQHKELKTVATDSHRLSQKKLTLEKNSDDFDVVIPSRSLREFSAVFTDDIETVEIFFANNQILFRSENISFYTRLLEGNYPDTDRLIPTDFNTTITFNVVNLRQSMERARLLSSATQNGTVKLEIKDGVVSAHVHSPEVGKVNEEIDTDQVTGEDLTISFNPTYLIDSLKALNSEKVTISFISAVRPFTLVPADTDEDFMQLITPVRTN", "reported-property": "protein production", "endpoint-result": "not failed"}

====

experiment: label from the status in PepcDB records
reported-property: protein production

{"query-sequence": "MAKPVLVRNTEEMMMNLDFPTYIKVAELGCSSGQNSFLAIFEIINTINVLCQHVNKNSPEIDCCLNDLPENDFNTTFKFVPFFNKELMITNKSSCFVYGAPGSFYSRLFSRNSLHLIHSSYALHWLSKVPEKLENNKGNLYITSSSPQSAYKAYLNQFQKDFTMFLRLRSEEIVSNGRMVLTFIGRNTLNDPLYRDCCHFWTLLSNSLRDLVFEGLVSESKLDAFNMPFYDPNVQELKEVIQKEGSFEINELESHGFDLGHYYEEDDFEAGRNEANGIRAVSEPMLIAHFGEEIIDTLFDKYAYHVTQHANCRNKTTVSLVVSLTKK", "reported-property": "protein production", "endpoint-result": "failed"}
{"query-sequence": "MSINSNSVFNNSGRVSAAGIASVVGLAVLSAVAVTGGAVKVLVISWVAFAAMALGAWLGARADETNPYRLVWGYGLASGAMVTSAAMFLVPQAMGLGGQAGAARIGGVGIAAGLVTGYGTHTIGHRLTHIETSFDMTTIAIAAHALSAGLVIGLVYASMPDLGILLGLAIVSHKGPAGYAAARRLGRSDKSATALLLPAAGVGLTAIPSALLPVPESALLNAVIFGFAAGIFLHVAMDFLPNCEAGSEIDEVCELHDHSHDLLDELRTHAVGSTVVGAAVIVLAWVAI", "reported-property": "protein production", "endpoint-result": "failed"}
{"query-sequence": "IKENAAQEVLEVQKVIDRLADNGQKALKAFESYNQEQVDNIVHAMALAGLDQHMPLAKLAVEETGRGLYEDKCIKNIFATEYIWNNIKNNKTVGVINEDTQTGVIEIAEPVGVVAGVTPVTNPTSTTLFKAIIAIKTRNPIIFAFHPSAQRCSSEAAKVVYDAAVAAGAPEHCIQWVEKPSLEATKQLMNHDKVALVLATGGAGMVKSAYSTGKPALGVGPGNVPAYIDKTAKIKRSVNDIILSKSFDQGMICASE", "reported-property": "protein production", "endpoint-result": "failed"}

====

experiment: label from the status in PepcDB records
reported-property: protein production

{"query-sequence": "MIQAVFERAEDGELRSAEITGHAESGEYGLDVVCASVSTLAINFINSIEKFAGYEPILELNEDEGGYLMVEIPKDLPSHQREMTQLFFESFFLGMANLSENYSEFVQTRVITEN", "protein production": "not failed"}
{"query-sequence": "MAGRRRRPTTDRTIGGLSFSQRELRDLLVAWLALGLAFTFFLEREFRRIVFGQFGGLSGAEIASTFAVSLLTVGVGFLLHELAHKVVAVRFGQIAAFKADYRMLGFAVLGGLVGFLFAAPGAVVHRGRLTAKQHGLIAVAGPVTNLALAVVFLVPFFLTASMGIGGFLRELTEMGLQINLLLAGFNMLPFGPLDGRTVREWSTPVFLAVAVPSILLGVGALFVL", "protein production": "failed"}
{"query-sequence": "KAKAAFFDIDGTLYREGLISEVFKKLIKYEIIDEEKWYKEVRPEFEKWDNRKGDYDDYLLKMTEIYVDALNGLSKSQVEFIASQVVNQKGERVYTYTRDRIKWHKERGHKIITISGSPIELVRNMAEKYGFDDYRGAEYLLDENDVYTGEVIPMWDSKSKERAVHELEAKYNIDLGESYAYGDTSGDLTMLKMVGNPVCINPTKELVKEILSDEEVKNKIRIIVERK", "protein production": "not failed"}
{"query-sequence": "MKKLLFAIDDTEACERAAQYILDMFGKDADCTLTLIHVKPEFMLYGEAVLAAYDEIEMKEEEKAKLLTQKFSTFFTEKGINPFVVIKEGEPVEMVLEEAKDYNLLIIGSSENSFLNKIFASHQDDFIQKAPIPVLIVK", "protein production": "not failed"}
{"query-sequence": "MNKEQLQQMRQAPGFVGALDQSGGSTPKALKAYGIQPDAYQSEEEMFDLIHQMRTRMITSPAFATGKIIGVILFERTMRGKIEGMPTADFLWEKRHIVPFLKVDKGLQDEANGVQLMKPFPELGKLCEEAVGYHVFGTKMRSVIKQANEQGIRDIVEQQFQWGKEILSHGLVPILEPEVDIHCPEKAKAEEILKRELLAQLDKMTEPVMLKITIPTVDNFYKEIIEHPMMLRVVALSGGYSREQANELLSRNHGVIASFSRALVEGLSARQTDAEFNAMLEASIEDVYQASIK", "protein production": "not failed"}
{"query-sequence": "KVVFAKEQPAHREVQAEAGASATLSCEVAQAQTEVTWYKDGKKLSSSSKVRVEAVGCTRRLVVQQAGQAEAGEYSCEAGGQQLSFRLQVAGQCFG", "protein production": "not failed"}

Please supply the value of reported protein production for the item SLGVQPPNFSWVLPGRLAGLALPRLPAHYQFLLDLGVRHLVSLTERGPPHSDSCPGLTLHRLRIPDFCPPAPDQIDRFVQIVDEANARGEAVGVHCALGFGRTGTMLACYLVKERGLAAGDAIAEIRRLRPGSIETYEQEKAVFQFYQRTK
not failed

====

assay: label from the status in PepcDB records
reported-property: protein production

{"query-sequence": "MEIFLWKDNRFHHQLRLLWHMCRGRNGTACLLLMKHFAAVRYLKLCTNHLWEVAGNMMNSNMNRRNVQYRQDRQPMPQPAVQPQCQPSCQTCPGTCNDGSMMTGNNGNPQMMPAGGPGPERRPMPVPDHQTLMNEIYQLGFAIVETVLYLDTHPSDADALNYYNQIKRRYSHVMEMYSREYGPLLNTNVMNDNYWSWVATPMPWEVEGC", "reported-property": "protein production", "endpoint-result": "failed"}
{"query-sequence": "MAFNGAMSVGAQISDAVILAHSPKSCTHIMYQTISSAGRRTLFERGALLPVSLAPNLESTDMGEAEMIFGGMEKLEEKILELKARQPRAIVVVSACPAGIIGDDIGRTRRFSEPGLPVVTLKTDGNLAGDYLQGMLMAYTSLARQVIRLEHHHHHH", "reported-property": "protein production", "endpoint-result": "failed"}
{"query-sequence": "SERTELLKPRTLADLIRILHELFAGDEVNVEEVQAVLEAYESNPAEWALYAKFDQYRYTRNLVDQGNGKFNLMILCWGEGHGSSIHDHTDSHCFLKLLQGNLKETLFDWPDKKSNEMIKKSERTLRENQCAYINDSIGLHRVENVSHTEPAVSLHLYSPPFDTCHAFDQRTGHKNKVTMTFHSKFGIRTPFTTSGSLENN", "reported-property": "protein production", "endpoint-result": "failed"}

====

assay: label from the status in PepcDB records

{"query-sequence": "MLCIPATRDQTVSSHPAGTRQKKLFSQNDYLAPLPLPTGQQPVDSLNIIWRKNEVYIDIGCYSVGSAVMVIWPMMIMFISLAYGLNDIDLLWLGVIITGIPTLMLIHGLLRPTPPPVRFNRQRREVCVPRDNGEYWIVPWESVTAASTQCSSIGQAGRVTMGLLFIGFENPDAEASEDNKHFSMGFNCGGGETAMALWECMRSYMEIGPEVVPESRVGAMPYEKTQIGSIVTSLRKGDVFDVLHGLFFITILGTYLAEKLQNLKLSPPPDLEYPDIIEWSKSLPPEQWATPSPELLAALARQAATS", "protein production": "failed"}
{"query-sequence": "MNWPNMPPGDRRWLWIGLTLPLCLLNGWVLLQILDYFQSPLRIFIIANLVAFILGYPVRWLQRYPRLKLPYAVALVLLTTAIILAVIGLLVIPKLVDQIRTVLQLLPHLNALGDRHLESLDNLSNQWEIPTNFRAWGRELSNEFPNQIRSITNQLINLLIWTAGSLVEAGFIFIMTVYLLLRGQTFWDGIFRWLPIDWRHKVRQRLRHSFQNYYIGQATVAALLGVSLIISLSIFQVPLALLFGMFVGFMAFFPFGGGTSIVLISIIASFQSIWLGIKVLAIATVVDQVVENGLAPKLLGRVTGVHPVWILLSLMIGAKVAGLLGILVAIPIASFIRDMLNDFI", "protein production": "failed"}
{"query-sequence": "DISKITDVAVMTVEGANDDISAPGQCIAALDLCTGLADSKKANHLEPGAGHYGIFAGRSWRDNIRPLVIDFMNTNSRKGKSLRPANKNSAA", "protein production": "failed"}
